- measured on: c-Src (Homo sapiens)
- Construct: purchased Upstate Biotechnology, Lake Placid, N.Y
- Sequence (P12931 whole entry, species assumed): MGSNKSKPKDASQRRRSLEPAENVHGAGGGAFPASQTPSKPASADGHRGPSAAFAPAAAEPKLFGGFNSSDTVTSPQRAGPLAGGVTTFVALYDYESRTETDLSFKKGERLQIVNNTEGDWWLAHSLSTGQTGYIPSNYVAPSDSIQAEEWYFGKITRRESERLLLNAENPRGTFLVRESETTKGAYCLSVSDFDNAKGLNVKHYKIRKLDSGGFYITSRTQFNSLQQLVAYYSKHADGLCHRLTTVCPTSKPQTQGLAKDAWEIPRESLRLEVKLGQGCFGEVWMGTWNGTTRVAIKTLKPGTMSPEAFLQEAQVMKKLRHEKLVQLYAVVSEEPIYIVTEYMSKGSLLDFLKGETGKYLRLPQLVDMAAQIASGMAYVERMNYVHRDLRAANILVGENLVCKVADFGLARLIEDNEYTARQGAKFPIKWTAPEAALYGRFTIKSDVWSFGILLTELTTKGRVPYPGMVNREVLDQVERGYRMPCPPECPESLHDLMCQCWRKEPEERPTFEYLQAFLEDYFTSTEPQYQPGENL
- measurement protocol: c-Src kinase inhibition (DELFIA)
- Format: biochemical
- measurement context: c-Src at 3 units per reaction
- Source text: c-Src kinase is purified from baculovirus infected insect cell lysates using an antipeptide monoclonal antibody directed against the N-terminal amino acids (amino acids 2-17) of c-Src. […] The filters are then punched, counted in a liquid scintillation counter, and the data examined for inhibitory activity in comparison to a known inhibitor such as erbstatin. […]
attribute measured: IC50 (µM)
Record the value in µM, omitting the unit from your answer.

Asked: Entry `CCN(CC)CCCCNc1nnc2cc(-c3cc(OC)cc(OC)c3)c(=O)n(CC)c2n1` , system c-Src (Homo sapiens): what IC50 was measured?
Given back: 10.6

====

- measured on: VEGFR-2 (Homo sapiens, UniProt P35968)
- Construct: The kinase domains from FGFR-1, VEGFR-2, Lck, and PDGF were purified from baculoviral vectors expression systems; made in house; host or cells: baculovirus expression system (insect cells)
- Sequence (P35968 834-1162 limits assumed, species assumed): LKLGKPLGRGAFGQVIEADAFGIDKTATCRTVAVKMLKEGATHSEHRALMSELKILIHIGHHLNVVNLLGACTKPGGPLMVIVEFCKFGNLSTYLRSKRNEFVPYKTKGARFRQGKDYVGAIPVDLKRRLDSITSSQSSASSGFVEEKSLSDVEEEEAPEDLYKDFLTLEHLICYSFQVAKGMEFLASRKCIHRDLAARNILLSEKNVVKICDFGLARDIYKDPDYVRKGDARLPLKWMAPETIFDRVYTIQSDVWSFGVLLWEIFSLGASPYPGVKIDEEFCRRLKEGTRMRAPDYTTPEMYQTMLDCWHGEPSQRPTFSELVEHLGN
- measurement protocol: VEGFR-2 tyrosine kinase inhibition (DELFIA)
- Format: biochemical
- measurement context: kinase domain at 20 nM; read-out: (VEGF-2) (IC50 = μM)
- Description: The inhibition activity of the compounds in Examples 7 and 8 were also evaluated using the Dissociated Enhanced Lanthanide Fluoroimmuno Assay (DELFIA) (Frank Loganzo and Carolyn Harady. A sensitive, time-resolved fluorometric assay for the detection of inhibitors of phosphotyrosine kinases. American Biotechnology Laboratory, December 1998). […]
attribute measured: IC50 (µM)
Note: unit µM is implicit; provide only the numeric part.

Asked: Please tell me: IC50 of `CCn1c(=O)c(-c2cc(OC)cc(OC)c2)cc2nnc(Nc3ccncc3)nc21` , system VEGFR-2 (Homo sapiens, UniProt P35968)?
Given back: 0.35

====

- measured on: Lck (Homo sapiens, UniProt P06239)
- Construct: The kinase domains from FGFR-1, VEGFR-2, Lck, and PDGF were purified from baculoviral vectors expression systems; made in house; host or cells: baculovirus expression system (insect cells)
- Sequence (P06239 245-498 limits assumed, species assumed): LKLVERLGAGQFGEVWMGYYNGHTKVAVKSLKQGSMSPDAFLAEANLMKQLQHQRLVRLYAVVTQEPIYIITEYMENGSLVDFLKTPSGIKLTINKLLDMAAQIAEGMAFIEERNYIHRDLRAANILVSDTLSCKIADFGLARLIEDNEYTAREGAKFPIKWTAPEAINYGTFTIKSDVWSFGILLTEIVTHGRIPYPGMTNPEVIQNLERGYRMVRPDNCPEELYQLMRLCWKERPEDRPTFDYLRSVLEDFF
- measurement protocol: Lck kinase inhibition (DELFIA)
- Assay type: biochemical
- measurement context: kinase domain at 20 nM
attribute measured: Ki

Asked: # lookup: Ki of `CCn1c(=O)c(-c2cc(OC)cc(OC)c2)cc2nnc(Nc3ccncc3)nc21`
Given back: > 4 µM

====

For each of the compounds below, state its IC50.
- measured on: PDGF (Mus musculus, UniProt P05622)
- Construct: The kinase domains from FGFR-1, VEGFR-2, Lck, and PDGF were purified from baculoviral vectors expression systems; made in house; host or cells: baculovirus expression system (insect cells)
- Sequence (P05622 599-961 limits assumed): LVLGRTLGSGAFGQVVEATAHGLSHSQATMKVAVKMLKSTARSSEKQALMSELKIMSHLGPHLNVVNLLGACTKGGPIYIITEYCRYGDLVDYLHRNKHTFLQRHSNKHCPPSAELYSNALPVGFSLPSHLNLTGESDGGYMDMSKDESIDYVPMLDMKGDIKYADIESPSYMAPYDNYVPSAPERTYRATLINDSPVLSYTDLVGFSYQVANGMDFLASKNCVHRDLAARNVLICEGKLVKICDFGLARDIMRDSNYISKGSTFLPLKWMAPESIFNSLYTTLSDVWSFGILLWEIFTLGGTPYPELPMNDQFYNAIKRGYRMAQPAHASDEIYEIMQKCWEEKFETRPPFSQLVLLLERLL
- measurement protocol: PDGF receptor tyrosine kinase inhibition (DELFIA)
- Format: biochemical
- measurement context: kinase domain at 20 nM

Asked: Recall the recorded IC50 for `CCN(CC)CCCCNc1nnc2cc(-c3cc(OC)cc(OC)c3)c(=O)n(CC)c2n1` with PDGF (Mus musculus, UniProt P05622) and state it.
Given back: > 50 µM

Asked: Give IC50 (PDGF (Mus musculus, UniProt P05622)) of the following compound: `CCn1c(=O)c(-c2cc(OC)cc(OC)c2)cc2nnc(Nc3ccncc3)nc21`
Given back: > 50 µM
